- TARGET: Mitogen-activated protein kinase kinase kinase 2 (Homo sapiens, UniProt Q9Y2U5); note: in the data inactive means no Kd found up to 30 µM
- Sequence (Q9Y2U5 whole entry): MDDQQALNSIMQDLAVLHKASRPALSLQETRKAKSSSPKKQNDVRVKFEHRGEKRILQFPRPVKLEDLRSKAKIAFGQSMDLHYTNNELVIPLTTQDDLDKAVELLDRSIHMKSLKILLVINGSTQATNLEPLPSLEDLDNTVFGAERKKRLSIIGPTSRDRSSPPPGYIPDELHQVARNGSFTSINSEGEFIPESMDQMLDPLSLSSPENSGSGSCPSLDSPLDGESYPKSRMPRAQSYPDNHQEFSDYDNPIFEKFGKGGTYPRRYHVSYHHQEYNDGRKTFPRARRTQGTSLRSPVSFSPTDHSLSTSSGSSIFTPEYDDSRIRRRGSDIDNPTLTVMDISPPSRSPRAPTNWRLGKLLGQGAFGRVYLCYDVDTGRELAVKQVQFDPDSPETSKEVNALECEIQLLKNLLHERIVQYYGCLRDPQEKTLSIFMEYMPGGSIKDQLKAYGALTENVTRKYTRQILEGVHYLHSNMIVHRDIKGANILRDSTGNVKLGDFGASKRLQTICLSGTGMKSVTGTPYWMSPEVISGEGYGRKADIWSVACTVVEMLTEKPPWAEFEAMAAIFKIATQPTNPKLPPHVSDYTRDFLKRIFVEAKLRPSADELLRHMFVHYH
Active and inactive are the calls of the source.
Outcomes: yes = active, no = inactive

SUBSTANCE SMILES	CLASS NAME
CCn1cc(-c2ccnc3[nH]c(-c4cccc(CN(C)C)c4)cc23)c(-c2ccc(NC(=O)N(C)C)cc2)n1	no
N#CC1(c2ccc(NC(=O)c3cccnc3NCc3ccncc3)cc2)CCCC1	no
CCNC(=O)C#Cc1ccc2c(c1)NC(=O)/C2=C(\Nc1ccc(CN(C)C)cc1)c1ccccc1	no
O=C(Nc1nc2cccc(-c3ccc(CN4CCS(=O)(=O)CC4)cc3)n2n1)C1CC1	no
COc1cc2ncnc(Oc3cccc(NC(=O)Nc4cc(C(C)(C)C(F)(F)F)on4)c3)c2cc1OC	no
CC(=O)NCC(=O)N1[C@@H]2CC[C@H]1c1ccc(Nc3ncc(C(F)(F)F)c(NC4CCC4)n3)cc12	yes

---

Reported Kd, Serine/threonine-protein kinase 10 (Homo sapiens, UniProt O94804).
Activity calls are given as the source filed them.

COMPOUND	Kd
Cc1cc(C(=O)NOCCO)c(Nc2ccc(I)cc2F)n(C)c1=O	> 30 µM (inactive)
FC(F)(F)c1ccc(/C=C/c2nc(COc3ccc(CCCCn4ccnn4)cc3)co2)cc1	> 30 µM (inactive)
CC(C)c1cc(CNc2nc(Nc3cc(C4CC4)[nH]n3)cc(N3CCN(C)CC3)n2)on1	0.379 µM (active)
CCNC(=O)C#Cc1ccc2c(c1)NC(=O)/C2=C(\Nc1ccc(CN(C)C)cc1)c1ccccc1	0.136 µM (active)
NC1(c2ccc(-c3nc4ccn5c(=O)[nH]nc5c4cc3-c3ccccc3)cc2)CCC1	> 30 µM (inactive)
CO[C@H]1C[C@@H]2CC[C@@H](C)[C@@](O)(O2)C(=O)C(=O)N2CCCC[C@H]2C(=O)O[C@H]([C@H](C)C[C@@H]2CC[C@@H](OP(C)(C)=O)[C@H](OC)C2)CC(=O)[C@H](C)/C=C(\C)[C@@H](O)[C@@H](OC)C(=O)[C@H](C)C[C@H](C)/C=C/C=C/C=C/1C	> 30 µM (inactive)
C[C@@H](NC(=O)c1ncnc(N)c1Cl)c1ncc(C(=O)Nc2cc(C(F)(F)F)c(Cl)cn2)s1	> 30 µM (inactive)
CO[C@H]1C[C@@H]2CC[C@@H](C)[C@@](O)(O2)C(=O)C(=O)N2CCCC[C@H]2C(=O)O[C@H]([C@H](C)C[C@@H]2CC[C@@H](OC(=O)C(C)(CO)CO)[C@H](OC)C2)CC(=O)[C@H](C)/C=C(\C)[C@@H](O)[C@@H](OC)C(=O)[C@H](C)C[C@H](C)/C=C/C=C/C=C/1C	> 30 µM (inactive)
O=c1[nH]ccc2cc(OC3CCNCC3)ccc12 [SAR-407899 FREE BASE]	> 30 µM (inactive)
C=CC(=O)Nc1cc2c(Nc3ccc(F)c(Cl)c3)ncnc2cc1C#CC(C)(C)N1CCN(C)CC1 [AV-412 FREE BASE]	28.6 µM (active)
CC(=O)c1cnc2ccc(-c3cc(Cl)c(O)c(Cl)c3)nc2c1N[C@H]1CC[C@H](CN(C)C)CC1	0.014 µM (active)
COCC(=O)NC/C=C/c1ccc2ncnc(Nc3ccc(Oc4ccc(C)nc4)c(C)c3)c2c1	> 30 µM (inactive)
Cc1cc(Nc2ncc(Cl)c(Nc3ccccc3S(=O)(=O)C(C)C)n2)c(OC(C)C)cc1C1CCNCC1	> 30 µM (inactive)
COc1ncc(-c2ccc3nccc(-c4ccnnc4)c3c2)cc1NS(=O)(=O)c1ccc(F)cc1F	> 30 µM (inactive)
